Reference source for all entries: ChEMBL document CHEMBL1201862

Test system: MDA-MB-435
Assay: NCI tumour cell line growth inhibition, 48 h
Structures can show the parent of a compound that is named as a salt. Activity calls are given as the source filed them. Cut-off read from the data, not from the text of the source: active = GI50 up to about 1.1 µM and inactive = higher.
Measured GI50, listed per entry.

For orientation, consider the following solved cases.
ClCc1nc2cc(Cl)ccc2o1 | 2.6 µM (inactive)
C#Cc1cccc(Nc2ncnc3cc(OCCOC)c(OCCOC)cc23)c1 [ERLOTINIB HYDROCHLORIDE] | 4.06 µM (inactive)

Q: // returns reported GI50 for input CCOC(=O)C1(N)CC1
Ans: > 100 µM (inactive)

Q: What about this compound? COc1ccc(S(=O)(=O)Nc2ccc(-c3csc(N4C(=O)/C(=C/c5ccccc5[N+](=O)[O-])N=C4c4ccccc4)n3)cc2)cc1Cl
Ans: > 100 µM (inactive)

Q: What about this compound? Cn1c(=O)c2nc(/N=N/Nc3nncs3)[nH]c2n(C)c1=O
Ans: > 100 µM (inactive)

Q: What about this compound? COc1cc2c3c(c4ccc(O)cc4c2cc1OC)[C@@H](O)[C@@H]1CCCN1C3
Ans: < 0.001 µM (active)

Q: What about this compound? COc1ccc(OC)c2c1C(=O)C(Cl)=C(N1CCN(CCOCCO)CC1)C2=O
Ans: 14.4 µM (inactive)

Q: What about this compound? CCOc1cc(C2CC(c3ccc(NS(=O)(=O)c4cc([N+](=O)[O-])ccc4C)cc3)=NN2c2ccc([N+](=O)[O-])cc2[N+](=O)[O-])ccc1O (stereo not given)
Ans: 11.6 µM (inactive)

Q: What about this compound? COc1cc2c(c(OC)c1OC)C(=O)CC2N (stereo not given)
Ans: > 100 µM (inactive)

----------
Measured GI50, listed per entry.
Tested on: TK-10
Test: NCI tumour cell line growth inhibition, 48 h
Active and inactive are the calls of the source. Cut-off read from the data, not from the text of the source: active = GI50 up to about 1.1 µM and inactive = higher.

For orientation, consider the following solved cases.
C=CC[C@H]1[C@H](O[Si](C)(C)C(C)(C)C)C=CC(=O)[C@@H]1CC(=O)N(Cc1ccccc1)Cc1ccccc1 | 19.2 µM (inactive)
OCCCc1ccc2c(c1)[C@H](CO)[C@@H](c1ccc(O)cc1)O2 | > 100 µM (inactive)
O=C1C(NCCc2ccc(O)c(O)c2)=CC(=O)c2ncccc21 | 36.2 µM (inactive)
Cc1cn(CCCCCOC(=O)NC(CCCNC(N)=O)C(=O)O)c(=O)[nH]c1=O (stereo not drawn) | > 100 µM (inactive)
CSc1nnc(SCc2nn3c(=O)cc(C)nc3s2)s1 | > 100 µM (inactive)
O=C(CSc1nnc(-c2ccc(/N=C\c3ccc(Cl)cc3)cc2)o1)Nc1ccccc1 | > 100 µM (inactive)
Cc1cc2nc3c(C#N)c(C)c(CCCl)c(Cl)n3c2cc1C | 2.18 µM (inactive)
Cc1c(/C=N/NC(=O)c2ccccc2O)c(=O)n(-c2ccccc2)n1C | > 100 µM (inactive)
COCO[C@@H]1C[C@H]2C(O)Nc3ccccc3C(=O)N2C1 (stereo partly drawn) | > 100 µM (inactive)
CC(=O)OC1CC2C(C)(C)OC(=O)CC(OC(C)=O)[C@]2(C)C2CCC3(C)C(=CCC3c3ccoc3)[C@]12C (stereo partly drawn) | 49 µM (inactive)

Q: // returns reported GI50 for input CC(=O)CC1(C)OC(N)=C(C#N)C1(C#N)C#N (stereo not drawn)
Ans: > 100 µM (inactive)
